# system name: OsWOX13 (Oryza sativa, UniProt Q5QMM3 1-267)
# Sequence: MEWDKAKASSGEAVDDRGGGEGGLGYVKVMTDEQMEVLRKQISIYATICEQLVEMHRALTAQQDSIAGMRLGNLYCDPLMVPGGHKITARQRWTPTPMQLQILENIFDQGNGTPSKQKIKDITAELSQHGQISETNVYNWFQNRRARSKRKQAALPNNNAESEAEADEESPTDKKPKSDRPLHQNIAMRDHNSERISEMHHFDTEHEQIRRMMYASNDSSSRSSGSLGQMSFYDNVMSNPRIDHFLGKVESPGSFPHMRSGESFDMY
# test details: protein-binding microarray (RPBM); PBS, 2% BSA, 51.3 ng/ul salmon testes DNA, 50 uM zinc acetate, 200 nM TF, 25 C, 1 h; high values mean tight binding
# condition summary: protein: recombinant; tags: N-terminal polyhistidine and DsRed monomer fusion (pET32a); label: CyDye5-dUTP incorporated in the synthesized complementary strand; 3' TTTTT single-stranded linker to array surface; dsDNA, one strand shown
Over roughly 35,000 sequences, “fluorescence intensity (a.u.)” has its median near 10,000; the highest 2% begin near 52,000. Shown is part of a subset that was picked to be rich in the highest values.
property name: binding signal

Recorded binding signal, per entry:
- ATAACAGTGATTGATCTGTTAAATATCCGATACGGGTAGGCGGAGTCACCTAGTGCAG: 65200 fluorescence intensity (a.u.)
- TCTGATTGATGATGACGATGATGGCGGCTGTGCAGCTGAACGGAGTCACCTAGTGCAG: 47600 fluorescence intensity (a.u.)
- TAATGCTTAATTAATCTCAATATAATCGCGTGCTTTGTTTCGGAGTCACCTAGTGCAG: 7810 fluorescence intensity (a.u.)
- ACATCATTGACATAATATGATTTAACAACAAACAATTTAGCGGAGTCACCTAGTGCAG: 34800 fluorescence intensity (a.u.)
- CATTGAATGTTTGGACACTAATTATAAATATTAAACGTAGCGGAGTCACCTAGTGCAG: 9090 fluorescence intensity (a.u.)
- CCGCAATTATTGGCCCTTAATTGTGAGGTTAATCCGTGGCCGGAGTCACCTAGTGCAG: 60900 fluorescence intensity (a.u.)
- ACATTAATGATTAGAGACCATATTGTCATCAACTATTGTACGGAGTCACCTAGTGCAG: 30800 fluorescence intensity (a.u.)
- TCATCGTGGTATTAATTATTTAATAATTATAAATATATTTCGGAGTCACCTAGTGCAG: 10200 fluorescence intensity (a.u.)
- ATATAATTACAATACAATCGTAGTGTAATTACACTGTAACCGGAGTCACCTAGTGCAG: 14800 fluorescence intensity (a.u.)
- TTTTAATTACTGATCTTCTTACAATTGCTTTTATGCTGTCCGGAGTCACCTAGTGCAG: 19700 fluorescence intensity (a.u.)

// fetch binding signal for CAACAGGATTGGAAGTGATCAGAGACAGGCAATGAAATCCCGGAGTCACCTAGTGCAG ; system: OsWOX13 (Oryza sativa, UniProt Q5QMM3 1-267) 8460 fluorescence intensity (a.u.)

# lookup: OsWOX13 (Oryza sativa, UniProt Q5QMM3 1-267) binding signal, key = TTAAATTGTTAATACCTCTGTATATCATCCGATCTACGTACGGAGTCACCTAGTGCAG 19600 fluorescence intensity (a.u.)
